Reference source: patent US8367666B2

system.name: CB2 receptor (Homo sapiens)
test.details: cAMP formation inhibition experiment through a cannabinoid receptor (forskolin stimulation), CB2
Format: cell-based
Set-up: expressed in transfected cells; host or cells: CHO cells
experimental.conditions: read-out: Agonist activity (nM) CB2
The entries below are paired with their reported IC50.
Reply numerically in nM, unit not repeated.

>>> observed_measurement("CCc1c(C)cc(C(=O)Nc2nc(CC(=O)O)cs2)c(=O)n1Cc1ccc(F)c(F)c1")
209
>>> observed_measurement("O=C(O)COc1ccc(NC(=O)c2cc3c(n(CC4CCCCC4)c2=O)CCCCCC3)cc1")
231

Q: Recorded IC50 for CCCCn1c(CCC)c(CC)cc(C(=O)NC2(C(=O)O)CCCCC2)c1=O , please?
Result: 556

Q: Recorded IC50 for CCc1c(C)cc(C(=O)NC2(C(=O)O)CCCCC2)c(=O)n1Cc1ccc(F)c(F)c1 , please?
Result: 209

----------
The entries below are paired with their reported Ki.
system.name: CB1 receptor (Homo sapiens, UniProt P21554)
Sequence (P21554 whole entry): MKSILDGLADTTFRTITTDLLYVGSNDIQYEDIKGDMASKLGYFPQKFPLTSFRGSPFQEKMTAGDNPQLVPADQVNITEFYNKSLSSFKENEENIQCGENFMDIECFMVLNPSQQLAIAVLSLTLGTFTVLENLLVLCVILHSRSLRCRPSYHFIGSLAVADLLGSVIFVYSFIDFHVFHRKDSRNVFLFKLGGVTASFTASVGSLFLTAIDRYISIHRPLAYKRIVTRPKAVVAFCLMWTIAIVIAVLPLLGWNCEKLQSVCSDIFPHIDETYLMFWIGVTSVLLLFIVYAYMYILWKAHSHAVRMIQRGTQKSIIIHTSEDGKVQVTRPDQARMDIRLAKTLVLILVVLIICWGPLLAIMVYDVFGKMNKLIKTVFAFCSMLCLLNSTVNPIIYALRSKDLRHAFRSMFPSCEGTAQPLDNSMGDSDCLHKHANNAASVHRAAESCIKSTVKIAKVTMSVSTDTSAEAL
test.details: Human cannabinoid receptor bonding inhibition test ([3H]CP55940), CB1
Format: binding
Set-up: expressed in transfected cells; membrane fraction
experimental.conditions: [3H]CP55940 0.5 nM, membrane preparation of CHO cells expressing CB1; Ki calculated from IC50; read-out: Binding activity (nM) CB1
Reply numerically in nM, unit not repeated.

>>> observed_measurement("CC(C)(CCNC(=O)c1cc2c(n(CC3CCCCC3)c1=O)CCCCCC2)C(=O)O [III-017]")
149

# input for lookup
Q: Recorded Ki for O=C(O)CCc1csc(NC(=O)c2cc3c(n(CC4CCCCC4)c2=O)CCCCCC3)n1 [Compound X-64] , please?
Result: 580

----------
Test system: scratching action induced by Compound 48/80
test.details: Anti-pruritic activity test by application (Compound 48/80 scratching)
Type: in vivo, mouse (Crj:CD-1 (ICR))
experimental.conditions: Mus musculus, topical, read-out: Itching inhibition ratio % (Concentration %)
quantity: inhibition in vivo at 1.5 % (%)
Reply numerically in %, unit not repeated.

// known answers, use as guide
>>> observed_measurement("COC(=O)[C@@H](NC(=O)c1cc2c(n(Cc3ccc(F)cc3)c1=O)CCCCCC2)C(C)(C)C [Compound I-263]")
57
>>> observed_measurement("COC(=O)[C@@H](NC(=O)c1cc2c(n(Cc3ccc(F)cc3)c1=O)CCCCCC2)C(C)C [Compound I-253]")
70
>>> observed_measurement("CCc1c(C)cc(C(=O)N[C@H](C(=O)OC)C(C)(C)C)c(=O)n1CC1CCCCC1 [Compound I-252]")
96

Q: Could you share what inhibition in vivo at 1.5 % was measured for CCCCn1c(CCC)c(CC)cc(C(=O)N[C@H](C(=O)OC)C(C)(C)C)c1=O [Compound I-211] , tested on scratching action induced by Compound 48/80?
Result: 70

Q: Could you share what inhibition in vivo at 1.5 % was measured for COC(=O)C(C)(C)NC(=O)c1cc2c(n(Cc3ccc(F)cc3)c1=O)CCCCCC2 [Compound I-255] , tested on scratching action induced by Compound 48/80?
Result: 93

----------
system.name: CB2 receptor (Homo sapiens, UniProt P34972)
Sequence (P34972 whole entry): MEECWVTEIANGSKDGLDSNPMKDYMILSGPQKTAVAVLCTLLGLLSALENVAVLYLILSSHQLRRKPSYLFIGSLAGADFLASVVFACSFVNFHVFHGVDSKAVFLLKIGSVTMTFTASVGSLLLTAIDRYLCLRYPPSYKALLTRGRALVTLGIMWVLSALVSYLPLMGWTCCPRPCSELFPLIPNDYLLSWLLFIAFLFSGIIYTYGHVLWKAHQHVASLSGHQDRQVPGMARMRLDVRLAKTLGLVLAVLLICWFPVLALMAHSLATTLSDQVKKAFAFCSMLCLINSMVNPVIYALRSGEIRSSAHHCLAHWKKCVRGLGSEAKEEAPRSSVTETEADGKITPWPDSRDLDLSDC
test.details: Human cannabinoid receptor bonding inhibition test ([3H]CP55940), CB2
Type: binding
Design: expressed in transfected cells; membrane fraction
The entries below are paired with their reported pKi.
# pKi = -log10(concentration in molar units)

>>> observed_measurement("CCc1c(C)cc(C(=O)Nc2nc(CC(=O)O)ns2)c(=O)n1CC1CCCCC1")
8.26
>>> observed_measurement("CCc1c(C)cc(C(=O)NC2(C(=O)O)CCCCCCCCC2)c(=O)n1Cc1ccc(F)cc1")
7.42

Q: Could you share what pKi was measured for CC(C)(NC(=O)c1cc2c(n(CC3CCCCC3)c1=O)CCCCCC2)C(=O)N1CCC(C(=O)N2CCCCC2)CC1 , tested on CB2 receptor (Homo sapiens, UniProt P34972)?
Result: 8.41

----------
system.name: CB1 receptor (Homo sapiens, UniProt P21554)
test.details: cAMP formation inhibition experiment through a cannabinoid receptor (forskolin stimulation), CB1
Format: cell-based
Parameters: expressed in transfected cells; host or cells: CHO cells
experimental.conditions: read-out: Agonist activity (nM) CB1
The entries below are paired with their reported IC50.
Reply numerically in nM, unit not repeated.

Q: Recorded IC50 for CCCc1c(CC)cc(C(=O)N[C@H](C(=O)OC)C(C)C)c(=O)n1CC1CCCCC1 [Compound I-133] , please?
Result: 4

Q: Recorded IC50 for CC(C)(NC(=O)c1cc2c(n(CC3CCCCC3)c1=O)CCCCCC2)C(=O)N1CCC(C(=O)N2CCCCC2)CC1 [Compound I-601] , please?
Result: 186

Q: Recorded IC50 for CC(C)C[C@@H](CC(=O)O)NC(=O)c1cc2c(n(CC3CCCCC3)c1=O)CCCCCC2 [II-069] , please?
Result: 5.6

Q: Recorded IC50 for CC(C)(NC(=O)c1cc2c(n(CC3CCCCC3)c1=O)CCCCCC2)C(=O)NCC(N)=O [Compound I-054] , please?
Result: 51

Q: Recorded IC50 for CCCCn1c2c(cc(C(=O)NC3(CC(=O)O)CCCC3)c1=O)CCCCCC2 [Compound X-235] , please?
Result: 270

Q: Recorded IC50 for COC(=O)[C@@H](NC(=O)c1cc(C)c(C)n(Cc2ccc(F)cc2)c1=O)C(C)C [Compound I-094] , please?
Result: 9

Q: Recorded IC50 for CC(C)(NC(=O)c1cc2c(n(CC3CCCCC3)c1=O)CCCCCC2)C(=O)NNS(C)(=O)=O [Compound I-052] , please?
Result: 49

----------
The entries below are paired with their reported Ki.
system.name: CB1 receptor (Homo sapiens)
test.details: Human cannabinoid receptor bonding inhibition test ([3H]CP55940), CB1
Type: binding
Parameters: expressed in transfected cells; membrane fraction
experimental.conditions: read-out: Binding activity (nM) CB1
Reply numerically in nM, unit not repeated.

// known answers, use as guide
>>> observed_measurement("CCc1c(C)cc(C(=O)NC2(C(=O)O)CCCCC2)c(=O)n1Cc1ccc(F)c(F)c1 [XI-027]")
1360
>>> observed_measurement("CCc1c(C)cc(C(=O)Nc2nc(CC(=O)O)cs2)c(=O)n1Cc1ccc(F)c(F)c1 [XI-025]")
1360

# input for lookup
Q: Recorded Ki for O=C(O)COc1ccc(NC(=O)c2cc3c(n(CC4CCCCC4)c2=O)CCCCCC3)cc1 [Compound X-220] , please?
Result: 555

----------
system.name: CB2 receptor (Homo sapiens, UniProt P34972)
test.details: Human cannabinoid receptor bonding inhibition test ([3H]CP55940), CB2
Type: binding
Set-up: expressed in transfected cells; membrane fraction
experimental.conditions: read-out: Binding activity (nM) CB2
quantity: Ki (nM)
Reply numerically in nM, unit not repeated.

Q: Recorded Ki for CCCCn1c(CCC)c(CC)cc(C(=O)NC2(C(=O)O)CCCCC2)c1=O , please?
Result: 382

----------
system.name: CB2 receptor (Homo sapiens, UniProt P34972)
test.details: Human cannabinoid receptor bonding inhibition test ([3H]CP55940), CB2
Format: binding
Design: expressed in transfected cells; membrane fraction
The entries below are paired with their reported pKi.
# pKi = -log10(concentration in molar units)

// known answers, use as guide
>>> observed_measurement("CCc1c(C)cc(C(=O)NC2(C(=O)O)CCCCCCC2)c(=O)n1Cc1ccc(F)cc1")
8.00
>>> observed_measurement("CCCCn1c2c(cc(C(=O)N[C@H](CC(=O)O)CC(C)C)c1=O)CCCCCC2")
7.38

# input for lookup
Q: Recorded pKi for CCNC(=O)C1CCCN(C(=O)C(C)(C)NC(=O)c2cc3c(n(CC4CCCCC4)c2=O)CCCCCC3)C1 (stereo not shown) , please?
Result: 8.02

----------
system.name: CB2 receptor (Homo sapiens, UniProt P34972)
test.details: cAMP formation inhibition experiment through a cannabinoid receptor (forskolin stimulation), CB2
Type: cell-based
Set-up: expressed in transfected cells; host or cells: CHO cells
Lab note: compare IC50 with 8 nM, writing class 1 if less and class 0 if equal or more.

Some solved cases for reference:
>>> qualitative_label("O=C(O)CC1(NC(=O)c2cc3c(n(CC4CCCCC4)c2=O)CCCCCC3)CCCCC1")
"class 1"
>>> qualitative_label("CCCC(CC(=O)O)NC(=O)c1cc2c(n(CC3CCCCC3)c1=O)CCCCCC2 (stereo not shown)")
"class 0"
>>> qualitative_label("CC(C)(NC(=O)c1cc2c(n(CC3CCCCC3)c1=O)CCCCCC2)C(=O)N1CCC(C(=O)N2CCOCC2)CC1")
"class 0"
>>> qualitative_label("CCc1c(C)cc(C(=O)NC2(CC(=O)O)CCCC2)c(=O)n1Cc1ccc(F)cc1")
"class 1"
>>> qualitative_label("CC(C)(C)OC(=O)NC1CCN(C(=O)C(C)(C)NC(=O)c2cc3c(n(CC4CCCCC4)c2=O)CCCCCC3)CC1")
"class 0"

Now look at this one.
Q: Hi there! Is IC50 for CC(C)(CNCCC(N)=O)NC(=O)c1cc2c(n(CC3CCCCC3)c1=O)CCCCCC2 below 8 nM, do you know?
Result: class 1
